# TARGET SYSTEM: Muscarinic acetylcholine receptor M1 (Homo sapiens); further: assay procedure not described here
# Sequence (P11229 whole entry): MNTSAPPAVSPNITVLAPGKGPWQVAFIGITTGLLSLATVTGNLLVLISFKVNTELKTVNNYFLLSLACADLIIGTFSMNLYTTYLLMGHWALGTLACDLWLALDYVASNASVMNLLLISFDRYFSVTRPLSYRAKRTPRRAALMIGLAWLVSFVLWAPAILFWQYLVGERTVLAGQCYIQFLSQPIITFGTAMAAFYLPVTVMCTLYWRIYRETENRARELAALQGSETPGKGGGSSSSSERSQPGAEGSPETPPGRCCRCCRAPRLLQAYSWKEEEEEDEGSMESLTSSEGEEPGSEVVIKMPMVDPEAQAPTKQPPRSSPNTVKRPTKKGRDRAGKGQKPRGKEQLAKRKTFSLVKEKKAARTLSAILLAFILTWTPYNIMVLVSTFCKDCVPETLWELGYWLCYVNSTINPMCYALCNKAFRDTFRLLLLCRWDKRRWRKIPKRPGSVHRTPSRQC
# Format: functional
QUANTITY NAME: AC50

Sample Nc1ccn([C@H]2CC[C@@H](CO)O2)c(=O)n1 [ZALCITABINE] ; AC50 observed: > 10 µM

Sample CN1C(=O)C(O)N=C(c2ccccc2)c2cc(Cl)ccc21 (configuration not stated) [TEMAZEPAM] ; AC50 observed: > 10 µM

Sample C[C@H](CSC(=O)c1ccccc1)C(=O)N1C[C@@H](Sc2ccccc2)C[C@H]1C(=O)O [ZOFENOPRIL] ; AC50 observed: > 10 µM

Sample CCCCN1C[C@H](O)[C@@H](O)[C@H](O)[C@H]1CO ; AC50 observed: > 30 µM

Sample N#Cc1ccc([C@H]2CCc3cncn32)c(F)c1 [OSILODROSTAT] ; AC50 observed: > 10 µM

More entries:
Sample CCOc1ccc(Cc2cc([C@@H]3O[C@H](CO)[C@@H](O)[C@H](O)[C@H]3O)ccc2Cl)cc1 [DAPAGLIFLOZIN] ; AC50 observed: > 10 µM

Sample CCCC(=O)O[C@]1(C(=O)CO)CC[C@H]2[C@@H]3CCC4=CC(=O)CC[C@]4(C)[C@H]3[C@@H](O)C[C@@]21C [HYDROCORTISONE BUTYRATE] ; AC50 observed: > 10 µM

Sample CN1C(=O)C(O)N=C(c2ccccc2Cl)c2cc(Cl)ccc21 (configuration not stated) [LORMETAZEPAM] ; AC50 observed: > 30 µM

Sample O=C(Cc1ccc(-c2ccccc2)cc1)Nc1ccccn1 [DIFENPIRAMIDE] ; AC50 observed: > 30 µM

Sample CO[C@@H]1[C@@H](O[C@@H]2O[C@H](C)[C@@H](O[C@H]3C[C@@](C)(O)[C@@H](OC(=O)CC(C)C)[C@H](C)O3)[C@H](N(C)C)[C@H]2O)[C@@H](CC=O)C[C@@H](C)[C@@H](O)/C=C/C=C/C[C@@H](C)OC(=O)C[C@H]1OC(C)=O [JOSAMYCIN] ; AC50 observed: > 10 µM

Sample CO/N=C(\C(=O)N[C@@H]1C(=O)N2C(C(=O)O)=C(CSc3nnnn3C)CS[C@H]12)c1csc(N)n1 [CEFMENOXIME] ; AC50 observed: > 30 µM

Sample Cn1nnc2c(C(N)=O)ncn2c1=O [TEMOZOLOMIDE] ; AC50 observed: > 30 µM

Sample C=CCC1(C(C)CC)C(=O)NC(=O)NC1=O (configuration not stated) [TALBUTAL] ; AC50 observed: > 10 µM

Sample CC(=O)NCCCS(=O)(=O)O [ACAMPROSATE] ; AC50 observed: > 30 µM

Sample O=C(O)[C@H](CC(=O)N1C[C@H]2CCCC[C@H]2C1)Cc1ccccc1 [MITIGLINIDE] ; AC50 observed: > 10 µM

Sample CCCCCNC(=N)N/N=C/c1c[nH]c2ccc(OC)cc12 [TEGASEROD] ; AC50 observed: > 30 µM

Sample C=CCN1CCCC1CNC(=O)c1cc(S(N)(=O)=O)cc(OC)c1OC (configuration not stated) [VERALIPRIDE] ; AC50 observed: > 30 µM

---

# TARGET SYSTEM: Muscarinic acetylcholine receptor M2 (Homo sapiens, UniProt P08172); further: assay procedure not described here
# Sequence (P08172 whole entry): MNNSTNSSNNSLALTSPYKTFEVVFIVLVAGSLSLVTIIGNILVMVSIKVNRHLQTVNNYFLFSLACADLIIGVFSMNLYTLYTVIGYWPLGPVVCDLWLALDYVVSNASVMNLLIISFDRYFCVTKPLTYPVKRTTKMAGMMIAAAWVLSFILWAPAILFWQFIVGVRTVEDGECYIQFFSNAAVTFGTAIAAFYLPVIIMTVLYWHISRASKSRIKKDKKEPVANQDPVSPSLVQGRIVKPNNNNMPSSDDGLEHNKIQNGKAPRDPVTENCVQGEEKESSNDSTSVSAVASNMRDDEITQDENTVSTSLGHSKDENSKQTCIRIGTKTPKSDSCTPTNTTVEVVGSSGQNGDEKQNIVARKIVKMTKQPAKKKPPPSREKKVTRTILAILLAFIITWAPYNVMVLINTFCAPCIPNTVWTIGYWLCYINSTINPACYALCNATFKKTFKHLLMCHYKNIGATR
# Format: functional, cell-based
QUANTITY NAME: AC50

Field: example entries. Status: answers known.
Sample O=C(NCCN1CCOCC1)c1ccc(Cl)cc1 [MOCLOBEMIDE] ; AC50 observed: > 10 µM

Sample NCC(=O)CCC(=O)O ; AC50 observed: > 30 µM

Sample C[C@]12CC[C@H]3[C@@H](CCC4=CC(=O)CC[C@@]43C)[C@@H]1CC[C@@H]2O ; AC50 observed: > 10 µM

More entries:
Sample c1cnc(N2CCN(Cc3ccc4c(c3)OCO4)CC2)nc1 ; AC50 observed: > 30 µM

Sample COC1=C(OC)C(=O)C(C/C=C(\C)CC/C=C(\C)CC/C=C(\C)CC/C=C(\C)CC/C=C(\C)CC/C=C(\C)CC/C=C(\C)CC/C=C(\C)CC/C=C(\C)CCC=C(C)C)=C(C)C1=O ; AC50 observed: > 30 µM

Sample CCOC(=O)[C@H](CCc1ccccc1)N[C@@H](C)C(=O)N1[C@H](C(=O)O)C[C@@H]2CCC[C@@H]21 ; AC50 observed: > 10 µM

Sample CC(CC(c1ccccc1)c1ccccc1)NC(C)(C)C (stereo not given) ; AC50 observed: 3.1 µM

Sample COC(=O)[C@H]1[C@H]2C[C@@H]3c4[nH]c5cc(OC)ccc5c4CCN3C[C@H]2C[C@@H](OC(=O)/C=C/c2cc(OC)c(OC)c(OC)c2)[C@@H]1OC ; AC50 observed: > 10 µM

Sample CCC1(CC)C(=O)NCC(C)C1=O (stereo not given) ; AC50 observed: > 30 µM

Sample CC[C@H]1OC(=O)[C@H](C)[C@@H](O[C@H]2C[C@@](C)(OC)[C@@H](O)[C@H](C)O2)[C@H](C)[C@@H](O[C@@H]2O[C@H](C)C[C@H](N(C)C)[C@H]2O)[C@](C)(O)C[C@@H](C)CN(C)[C@H](C)[C@@H](O)[C@]1(C)O ; AC50 observed: > 10 µM

Sample COCCCN1CCC(NC(=O)c2cc(Cl)c(N)c3c2OCC3)CC1 [PRUCALOPRIDE] ; AC50 observed: > 30 µM

Sample CC(C)=CCC/C(C)=C/C=C/C(C)=C/C=C/C(C)=C/C=C/C=C(C)/C=C/C=C(C)/C=C/C=C(\C)CCC=C(C)C ; AC50 observed: > 30 µM

---

// endpoint AC50 / system Alpha-1A adrenergic receptor (Homo sapiens, UniProt P35348); further: assay procedure not described here

Field: example entries. Status: answers known.
Record for COc1ccccc1N1CCN(CC(O)COc2cccc3ccccc23)CC1 (stereo not drawn) under target or system Alpha-1A adrenergic receptor (Homo sapiens, UniProt P35348): AC50 reported as 0.02 µM

Record for Cc1cc(C)c(NC(=O)CN(CC(=O)O)CC(=O)O)c(C)c1Br under target or system Alpha-1A adrenergic receptor (Homo sapiens, UniProt P35348): AC50 reported as > 30 µM

Record for CC[C@H]1CN2CCc3cc(OC)c(OC)cc3[C@@H]2C[C@@H]1C[C@H]1NCCc2cc(OC)c(OC)cc21 under target or system Alpha-1A adrenergic receptor (Homo sapiens, UniProt P35348): AC50 reported as 2.51 µM

Record for CCc1oc2ccccc2c1C(=O)c1cc(I)c(O)c(I)c1 under target or system Alpha-1A adrenergic receptor (Homo sapiens, UniProt P35348): AC50 reported as > 30 µM

Record for Cc1oc(=O)oc1CN1CCN(c2cc3c(cc2F)c(=O)c(C(=O)O)c2n3C(C)S2)CC1 (stereo not drawn) under target or system Alpha-1A adrenergic receptor (Homo sapiens, UniProt P35348): AC50 reported as > 30 µM

More entries:
Record for CC[C@H]1OC(=O)[C@H](C)[C@@H](O[C@H]2C[C@@](C)(OC)[C@@H](O)[C@H](C)O2)[C@H](C)[C@@H](O[C@@H]2O[C@H](C)C[C@H](N(C)C)[C@H]2O)[C@](C)(O)C[C@@H](C)CN(C)[C@H](C)[C@@H](O)[C@]1(C)O under target or system Alpha-1A adrenergic receptor (Homo sapiens, UniProt P35348): AC50 reported as > 30 µM

Record for C=CCCCCCCCCC(=O)O under target or system Alpha-1A adrenergic receptor (Homo sapiens, UniProt P35348): AC50 reported as > 30 µM

Record for Nc1ccncc1N under target or system Alpha-1A adrenergic receptor (Homo sapiens, UniProt P35348): AC50 reported as > 30 µM

---

Quick reference: AC50 of the listed items.
# TARGET SYSTEM: Alpha-2C adrenergic receptor (Homo sapiens); further: assay procedure not described here
# Sequence (P18825 whole entry): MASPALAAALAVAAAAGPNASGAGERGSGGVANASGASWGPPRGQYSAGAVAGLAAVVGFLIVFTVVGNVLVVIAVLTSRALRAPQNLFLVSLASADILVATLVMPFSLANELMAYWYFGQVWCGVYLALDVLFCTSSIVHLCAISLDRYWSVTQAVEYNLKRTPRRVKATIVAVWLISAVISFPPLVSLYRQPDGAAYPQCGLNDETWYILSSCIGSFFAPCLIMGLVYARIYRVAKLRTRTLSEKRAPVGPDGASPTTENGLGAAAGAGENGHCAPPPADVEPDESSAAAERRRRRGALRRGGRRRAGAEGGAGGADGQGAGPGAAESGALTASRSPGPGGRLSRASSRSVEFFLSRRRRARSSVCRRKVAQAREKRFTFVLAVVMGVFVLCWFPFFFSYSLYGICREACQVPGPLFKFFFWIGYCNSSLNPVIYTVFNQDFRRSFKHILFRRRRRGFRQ
# Assay type: functional

Field: example entries. Status: answers known.
Sample CC(C)(C)c1cc(C(C)(C)C)c(NC(=O)c2c[nH]c3ccccc3c2=O)cc1O [IVACAFTOR] ; AC50 observed: > 10 µM

Sample CCCC(=O)O[C@]1(C(=O)CO)CC[C@H]2[C@@H]3CCC4=CC(=O)CC[C@]4(C)[C@H]3[C@@H](O)C[C@@]21C [HYDROCORTISONE BUTYRATE] ; AC50 observed: > 10 µM

Sample O=C1Nc2ccc(Cl)cc2[C@@](C#CC2CC2)(C(F)(F)F)O1 [EFAVIRENZ] ; AC50 observed: > 30 µM

Here is another compound to look at.
Sample CC(=O)O[C@H]1CC[C@@]2(C)C(=CC[C@@H]3[C@@H]2CC[C@]2(C)C(c4cccnc4)=CC[C@@H]32)C1 [ABIRATERONE ACETATE] ; AC50 observed: > 30 µM

---

// endpoint AC50 / system Delta-type opioid receptor (Homo sapiens, UniProt P41143); further: assay procedure not described here

Sample Cc1cn([C@H]2C=C[C@@H](CO)O2)c(=O)[nH]c1=O [STAVUDINE] ; AC50 observed: > 10 µM

Sample Fc1ccc(C(c2ccccc2)(c2ccccc2F)n2ccnc2)cc1 (stereo not given) [FLUTRIMAZOLE] ; AC50 observed: > 30 µM

Sample CCN1CCN(C(=O)N[C@@H](C(=O)N[C@@H]2C(=O)N3C(C(=O)O)=C(CSc4nnnn4C)CS[C@H]23)c2ccc(O)cc2)C(=O)C1=O [CEFOPERAZONE] ; AC50 observed: > 30 µM

Sample CC=CC(=O)N(CC)c1ccccc1C ; AC50 observed: > 30 µM

More entries:
Sample COc1ccccc1N1CCN(CCCNc2cc(=O)n(C)c(=O)n2C)CC1 ; AC50 observed: > 30 µM
